assaySystem: recombinant sEH (soluble epoxide hydrolase, EPHX2) (Homo sapiens (Human))
Sequence (P34913 whole entry): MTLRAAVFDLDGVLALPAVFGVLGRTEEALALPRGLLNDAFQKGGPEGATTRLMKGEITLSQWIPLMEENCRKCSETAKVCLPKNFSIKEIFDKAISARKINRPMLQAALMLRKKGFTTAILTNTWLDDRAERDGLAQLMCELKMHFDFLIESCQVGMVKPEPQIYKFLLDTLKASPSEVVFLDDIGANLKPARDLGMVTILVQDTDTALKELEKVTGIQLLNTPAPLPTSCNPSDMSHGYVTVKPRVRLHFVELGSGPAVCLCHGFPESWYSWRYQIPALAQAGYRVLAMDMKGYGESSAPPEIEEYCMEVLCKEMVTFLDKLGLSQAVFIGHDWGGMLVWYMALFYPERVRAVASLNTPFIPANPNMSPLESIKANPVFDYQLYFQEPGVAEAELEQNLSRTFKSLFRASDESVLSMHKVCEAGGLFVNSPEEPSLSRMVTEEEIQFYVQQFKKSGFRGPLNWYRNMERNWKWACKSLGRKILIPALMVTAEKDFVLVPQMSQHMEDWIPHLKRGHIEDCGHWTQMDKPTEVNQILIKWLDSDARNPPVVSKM
assayInfo: biochemical fluorometric sEH inhibition assay with Phome substrate
experimentalConditions: recombinant sEH purified from Sf9 insect cells, 2 nM sEH, 5 μM Phome, 60 minutes at 30° C.
pIC50: −log10 of the molar value.
observationType: pIC50

Below, each entry is followed by its recorded pIC50 result.
[[record]]
molecule = "O=C(NCc1ccccc1C(F)(F)F)c1ccc(CN2CCN(C(=O)c3ccc4nccn4c3)CC2)s1"
assaysystem = "recombinant sEH (soluble epoxide hydrolase, EPHX2) (Homo sapiens (Human))"
reportedresult = 9.22

[[record]]
molecule = "O=C(NCc1ccc(Cl)cc1Cl)c1cnc(CN2CCN(C(=O)CO)CC2)s1"
assaysystem = "recombinant sEH (soluble epoxide hydrolase, EPHX2) (Homo sapiens (Human))"
reportedresult = 7.28

[[record]]
molecule = "O=C(NCc1ccccc1OC(F)(F)F)c1ccc(CN2CCN(C(=O)C3COCCN3)CC2)s1 (stereo not shown)"
assaysystem = "recombinant sEH (soluble epoxide hydrolase, EPHX2) (Homo sapiens (Human))"
reportedresult = 8.57

[[record]]
molecule = "CC1(C)CC[C@@H](C(=O)N2CCN(Cc3ccc(C(=O)NCc4ccccc4OC(F)(F)F)s3)CC2)N1"
assaysystem = "recombinant sEH (soluble epoxide hydrolase, EPHX2) (Homo sapiens (Human))"
reportedresult = 8.62

[[record]]
molecule = "O=C(NCc1ccccc1C(F)(F)F)c1ccc(CN2CCN(C(=O)[C@@H]3C[C@H]3c3ccccc3)CC2)s1"
assaysystem = "recombinant sEH (soluble epoxide hydrolase, EPHX2) (Homo sapiens (Human))"
reportedresult = 8.60

[[record]]
molecule = "COCC1(C(=O)N2CCN(Cc3ncc(C(=O)NCc4ccc(Cl)cc4Cl)s3)CC2)CC1"
assaysystem = "recombinant sEH (soluble epoxide hydrolase, EPHX2) (Homo sapiens (Human))"
reportedresult = 8.24

[[record]]
molecule = "CO[C@H](C)C(=O)N1CCN(Cc2ccc(C(=O)NCc3ccccc3OC(F)(F)F)s2)CC1"
assaysystem = "recombinant sEH (soluble epoxide hydrolase, EPHX2) (Homo sapiens (Human))"
reportedresult = 8.88

[[record]]
molecule = "COc1cc(CNC(=O)c2ccc(CN3CCN(C(=O)c4nc(F)ccc4F)CC3)s2)ccn1"
assaysystem = "recombinant sEH (soluble epoxide hydrolase, EPHX2) (Homo sapiens (Human))"
reportedresult = 8.09


(I) Cc1cccnc1N1CCN(Cc2ccc(C(=O)NCc3ccc(Cl)cc3Cl)s2)CC1=O
(II) Cc1noc(C)c1C(=O)N1CCN(Cc2ccc(C(=O)NCc3ccccc3C(F)(F)F)s2)CC1
(III) O=C(NCc1ccc(Cl)cc1Cl)c1cnc(CN2CCN(C(=O)CN3CCCC3=O)CC2)s1
rank_up(items): orders items by reported pIC50 in ascending numerical order. Response format: the labels, sorted as the prompt asks.
III, I, II

Value source: patent US9776991B2
